target: Mitogen-activated protein kinase 1 (Homo sapiens); assay: DRUGMATRIX: Protein Serine/Threonine Kinase, ERK2 enzyme inhibition (substrate: Myelin Basic Protein); parameters: species or system Escherichia coli; conditions: Not Active = under 50% inhibition at 10 µM

# Molecule, IC50
records = [
    ("CCN[C@@H](C)Cc1cccc(C(F)(F)F)c1 [DEXFENFLURAMINE]", "Not Active"),
    ("C[C@@H](O)[C@H]1C(=O)N2C(C(=O)O)=C(S[C@@H]3CN[C@H](C(=O)N(C)C)C3)[C@H](C)[C@H]12 [MEROPENEM]", "Not Active"),
    ("CC[C@H](C)C(=O)O[C@H]1C[C@H](O)C=C2C=C[C@H](C)[C@H](CC[C@@H](O)C[C@@H](O)CC(=O)O)[C@H]21 [PRAVASTATIN]", "Not Active"),
    ("N[C@@H](Cc1ccc(F)cc1)C(=O)O", "Not Active"),
    ("O=c1cc(-c2ccccc2)oc2ccc3ccccc3c12 [BETA-NAPHTHOFLAVONE]", "Not Active"),
    ("CCC[C@@H]1C[C@@H](C(=O)N[C@@H]([C@H]2O[C@H](SC)[C@H](O)[C@@H](O)[C@H]2O)[C@H](C)Cl)N(C)C1 [CLINDAMYCIN]", "Not Active"),
    ("CCC(=O)O[C@H]1[C@H](O[C@@H]2[C@@H](C)[C@H](O[C@H]3C[C@@](C)(OC)[C@@H](O)[C@H](C)O3)[C@@H](C)C(=O)O[C@H](CC)[C@@](C)(O)[C@H](O)[C@@H](C)C(=O)[C@H](C)C[C@@]2(C)O)O[C@H](C)C[C@@H]1N(C)C [ERYTHROMYCIN PROPIONATE]", "Not Active"),
]

====

molecular target: Mitogen-activated protein kinase 1 (Homo sapiens, UniProt P28482); test: DRUGMATRIX: Protein Serine/Threonine Kinase, ERK2 enzyme inhibition (substrate: Myelin Basic Protein); parameters: species or system Escherichia coli; conditions: Not Active = under 50% inhibition at 10 µM
Sequence (P28482 whole entry): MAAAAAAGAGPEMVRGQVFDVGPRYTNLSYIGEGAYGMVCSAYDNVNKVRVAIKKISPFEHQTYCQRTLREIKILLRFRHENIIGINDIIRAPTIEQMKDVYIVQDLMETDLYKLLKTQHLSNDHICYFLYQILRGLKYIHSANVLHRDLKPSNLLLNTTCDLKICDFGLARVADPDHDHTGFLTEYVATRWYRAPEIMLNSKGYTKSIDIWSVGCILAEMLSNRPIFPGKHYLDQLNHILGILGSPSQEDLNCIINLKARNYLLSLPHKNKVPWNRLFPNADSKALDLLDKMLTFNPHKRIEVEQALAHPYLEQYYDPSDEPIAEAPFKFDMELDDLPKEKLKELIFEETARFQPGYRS
Endpoint name: IC50

# Compound, Measured on, Reported measurement
measured = [
    ("Cc1cccc(Nc2cc(Cl)nc(SCC(=O)O)n2)c1C", "Mitogen-activated protein kinase 1 (Homo sapiens, UniProt P28482)", "Not Active"),
    ("C[C@]12CC[C@H]3[C@@H](CCC4=CC(=O)CC[C@@]43C)[C@@H]1CC[C@@H]2O", "Mitogen-activated protein kinase 1 (Homo sapiens, UniProt P28482)", "Not Active"),
    ("C/C=C\\c1ccc(O)c(OC)c1", "Mitogen-activated protein kinase 1 (Homo sapiens, UniProt P28482)", "Not Active"),
    ("O=c1n(CCCN2CCN(c3cccc(Cl)c3)CC2)nc2ccccn12", "Mitogen-activated protein kinase 1 (Homo sapiens, UniProt P28482)", "Not Active"),
    ("O=C(O)C(Cl)(Cl)Cl", "Mitogen-activated protein kinase 1 (Homo sapiens, UniProt P28482)", "Not Active"),
    ("COc1ccccc1OCC(O)COC(N)=O (stereo not drawn)", "Mitogen-activated protein kinase 1 (Homo sapiens, UniProt P28482)", "Not Active"),
    ("COc1ccccc1OCC(O)CO (stereo not drawn)", "Mitogen-activated protein kinase 1 (Homo sapiens, UniProt P28482)", "Not Active"),
    ("CCN(CC)CC#CCOC(=O)C(O)(c1ccccc1)C1CCCCC1 (stereo not drawn)", "Mitogen-activated protein kinase 1 (Homo sapiens, UniProt P28482)", "Not Active"),
    ("O=P1(N(CCCl)CCCl)NCCCO1 (stereo not drawn) [CYCLOPHOSPHAMIDE ANHYDROUS]", "Mitogen-activated protein kinase 1 (Homo sapiens, UniProt P28482)", "Not Active"),
    ("Cc1cn([C@H]2C[C@H](N=[N+]=[N-])[C@@H](CO)O2)c(=O)[nH]c1=O", "Mitogen-activated protein kinase 1 (Homo sapiens, UniProt P28482)", "Not Active"),
    ("C=C(C)[C@H]1Cc2c(ccc3c2O[C@@H]2COc4cc(OC)c(OC)cc4[C@@H]2C3=O)O1", "Mitogen-activated protein kinase 1 (Homo sapiens, UniProt P28482)", "Not Active"),
    ("COc1ncnc(NS(=O)(=O)c2ccc(N)cc2)c1OC", "Mitogen-activated protein kinase 1 (Homo sapiens, UniProt P28482)", "Not Active"),
    ("CN(Cc1cnc2nc(N)nc(N)c2n1)c1ccc(C(=O)N[C@@H](CCC(=O)O)C(=O)O)cc1 [METHOTREXATE]", "Mitogen-activated protein kinase 1 (Homo sapiens, UniProt P28482)", "Not Active"),
    ("CS(=O)(=O)OCCCCOS(C)(=O)=O", "Mitogen-activated protein kinase 1 (Homo sapiens, UniProt P28482)", "Not Active"),
    ("CC[C@H](C)C(=O)O[C@H]1C[C@@H](C)C=C2C=C[C@H](C)[C@H](CC[C@@H]3C[C@@H](O)CC(=O)O3)[C@H]21", "Mitogen-activated protein kinase 1 (Homo sapiens, UniProt P28482)", "Not Active"),
    ("OCCN1CCN(CCCN2c3ccccc3Sc3ccc(C(F)(F)F)cc32)CC1", "Mitogen-activated protein kinase 1 (Homo sapiens, UniProt P28482)", "Not Active"),
    ("CC(=O)O[C@]1(C(C)=O)CC[C@H]2[C@@H]3C=C(C)C4=CC(=O)CC[C@]4(C)[C@H]3CC[C@@]21C [MEGESTROL ACETATE]", "Mitogen-activated protein kinase 1 (Homo sapiens, UniProt P28482)", "Not Active"),
    ("C#C[C@]1(O)CC[C@H]2[C@@H]3CCC4=Cc5oncc5C[C@]4(C)[C@H]3CC[C@@]21C", "Mitogen-activated protein kinase 1 (Homo sapiens, UniProt P28482)", "Not Active"),
]

====

test: DRUGMATRIX: Glutamate, AMPA radioligand binding (ligand: [3H] AMPA); assay type: cell membranes, Rattus norvegicus, Wistar, Cerebral cortex, Membrane; conditions: Not Active = under 50% inhibition at 10 µM

# Compound, Ki
measured = [
    ("NC[C@H]1O[C@H](O[C@H]2[C@H](O)[C@@H](O[C@H]3O[C@H](CO)[C@@H](O)[C@H](N)[C@H]3O)[C@H](N)C[C@@H]2N)[C@H](N)C[C@@H]1O", "Not Active"),
    ("CCC[C@@H]1C[C@@H](C(=O)N[C@@H]([C@H]2O[C@H](SC)[C@H](O)[C@@H](O)[C@H]2O)[C@H](C)Cl)N(C)C1", "Not Active"),
    ("C[C@@H]1C[C@H]2[C@@H]3CCC4=CC(=O)C=C[C@]4(C)C3=CC[C@]2(C)[C@H]1C(=O)CN1CCN(c2cc(N3CCCC3)nc(N3CCCC3)n2)CC1", "Not Active"),
    ("C/C=C\\c1ccc(O)c(OC)c1", "Not Active"),
    ("C=C(C)[C@H]1Cc2c(ccc3c2O[C@@H]2COc4cc(OC)c(OC)cc4[C@@H]2C3=O)O1", "Not Active"),
    ("COc1ccc(Cc2nccc3cc(OC)c(OC)cc23)cc1OC", "Not Active"),
    ("CN(C(=O)CCCOc1ccc2[nH]c(=O)ccc2c1)C1CCCCC1 [CILOSTAMIDE]", "Not Active"),
]

====

assay: DRUGMATRIX: Phosphodiesterase PDE4 enzyme inhibition (substrate: [3H]cAMP + cAMP); settings: u-937; Not Active = under 50% inhibition at 10 µM

# Substance, Ki
rows = [
    ("THIMEROSAL", "Not Active"),
    ("STANNOUS FLUORIDE", "Not Active"),
    ("INSULIN HUMAN", "Not Active"),
    ("COBALT(II) ACETYLACETONATE", "Not Active"),
    ("POLYVINYL ALCOHOL", "Not Active"),
]

====

target: Mitogen-activated protein kinase 3 (Homo sapiens, UniProt P27361); experiment: DRUGMATRIX: Protein Serine/Threonine Kinase, ERK1 enzyme inhibition (substrate: Myelin Basic Protein); set-up: species or system Escherichia coli; details: Not Active = under 50% inhibition at 10 µM
Sequence (P27361 whole entry): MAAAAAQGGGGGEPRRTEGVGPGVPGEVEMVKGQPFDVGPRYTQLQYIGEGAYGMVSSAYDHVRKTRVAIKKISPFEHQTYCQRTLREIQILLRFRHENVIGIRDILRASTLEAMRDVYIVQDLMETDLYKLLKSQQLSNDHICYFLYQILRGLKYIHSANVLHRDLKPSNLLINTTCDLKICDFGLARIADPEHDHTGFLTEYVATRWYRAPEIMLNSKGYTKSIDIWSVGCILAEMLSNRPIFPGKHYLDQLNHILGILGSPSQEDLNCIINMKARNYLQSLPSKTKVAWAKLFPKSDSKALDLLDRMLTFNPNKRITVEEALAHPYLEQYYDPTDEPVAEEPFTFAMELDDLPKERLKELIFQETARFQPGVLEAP

# Compound, IC50
records = [
    ("C[C@H]([C@](O)(Cn1cncn1)c1ccc(F)cc1F)S(C)(=O)=O", "Not Active"),
    ("CN1C2CCCC1CC(NC(=O)c1nn(C)c3ccccc13)C2 (configuration not stated)", "Not Active"),
    ("C=C(CC)C(=O)c1ccc(OCC(=O)O)c(Cl)c1Cl", "Not Active"),
    ("CCc1oc2ccccc2c1C(=O)c1cc(Br)c(O)c(Br)c1", "Not Active"),
    ("COc1ccc(CN2CCNCC2)c(OC)c1OC", "Not Active"),
    ("CC(C(=O)O)c1ccc(-c2ccccc2)c(F)c1 (configuration not stated)", "Not Active"),
    ("CN[C@@H]1[C@H](O)[C@H](NC)[C@H]2O[C@@]3(O)C(=O)C[C@@H](C)O[C@H]3O[C@@H]2[C@H]1O", "Not Active"),
    ("CC(CCc1ccc(O)cc1)NCCc1ccc(O)c(O)c1 (configuration not stated)", "Not Active"),
    ("Oc1ccccc1O", "Not Active"),
    ("NC[C@H]1O[C@H](O[C@H]2[C@H](O)[C@@H](O[C@H]3O[C@H](CO)[C@@H](O)[C@H](N)[C@H]3O)[C@H](N)C[C@@H]2N)[C@H](N)C[C@@H]1O", "Not Active"),
    ("CC(C)OC(=O)C(C)(C)Oc1ccc(C(=O)c2ccc(Cl)cc2)cc1 [FENOFIBRATE]", "Not Active"),
    ("CC(=O)OCC(CCn1cnc2cnc(N)nc21)COC(C)=O", "Not Active"),
    ("CCn1cc(C(=O)O)c(=O)c2cc(F)c(N3CCNCC3)nc21", "Not Active"),
    ("NC[C@@H]1O[C@H](O[C@H]2[C@@H](O)[C@H](O[C@@H]3[C@@H](O)[C@H](N)C[C@H](N)[C@H]3O[C@H]3O[C@H](CN)[C@@H](O)[C@H](O)[C@H]3N)O[C@@H]2CO)[C@H](N)[C@@H](O)[C@@H]1O", "Not Active"),
    ("Cc1cn([C@H]2C[C@H](N=[N+]=[N-])[C@@H](CO)O2)c(=O)[nH]c1=O", "Not Active"),
    ("CC(C)C[C@H]1C(=O)N2CCC[C@H]2[C@]2(O)O[C@](NC(=O)[C@@H]3C=C4c5cccc6[nH]c(Br)c(c56)C[C@H]4N(C)C3)(C(C)C)C(=O)N12", "Not Active"),
    ("CC(C)(C)NC[C@H](O)COc1nsnc1N1CCOCC1", "Not Active"),
]
